biological target: N-type Ca^2+ Channel (Homo sapiens); construct: host or cells: IMR-32 cells differentiated with dibutyryl cAMP and bromodeoxyuridine; experiment: Measurement of N-type Ca2+ channel blocking potencies in IMR-32 cells using the fluorescent Ca2+ indicator Indo-1; type: cell-based; details: IMR-32 cells, 5 μM nitrendipine; Examples 116-140; read-out: IMR 32% of Blockade @
Sequence (Q00975 whole entry): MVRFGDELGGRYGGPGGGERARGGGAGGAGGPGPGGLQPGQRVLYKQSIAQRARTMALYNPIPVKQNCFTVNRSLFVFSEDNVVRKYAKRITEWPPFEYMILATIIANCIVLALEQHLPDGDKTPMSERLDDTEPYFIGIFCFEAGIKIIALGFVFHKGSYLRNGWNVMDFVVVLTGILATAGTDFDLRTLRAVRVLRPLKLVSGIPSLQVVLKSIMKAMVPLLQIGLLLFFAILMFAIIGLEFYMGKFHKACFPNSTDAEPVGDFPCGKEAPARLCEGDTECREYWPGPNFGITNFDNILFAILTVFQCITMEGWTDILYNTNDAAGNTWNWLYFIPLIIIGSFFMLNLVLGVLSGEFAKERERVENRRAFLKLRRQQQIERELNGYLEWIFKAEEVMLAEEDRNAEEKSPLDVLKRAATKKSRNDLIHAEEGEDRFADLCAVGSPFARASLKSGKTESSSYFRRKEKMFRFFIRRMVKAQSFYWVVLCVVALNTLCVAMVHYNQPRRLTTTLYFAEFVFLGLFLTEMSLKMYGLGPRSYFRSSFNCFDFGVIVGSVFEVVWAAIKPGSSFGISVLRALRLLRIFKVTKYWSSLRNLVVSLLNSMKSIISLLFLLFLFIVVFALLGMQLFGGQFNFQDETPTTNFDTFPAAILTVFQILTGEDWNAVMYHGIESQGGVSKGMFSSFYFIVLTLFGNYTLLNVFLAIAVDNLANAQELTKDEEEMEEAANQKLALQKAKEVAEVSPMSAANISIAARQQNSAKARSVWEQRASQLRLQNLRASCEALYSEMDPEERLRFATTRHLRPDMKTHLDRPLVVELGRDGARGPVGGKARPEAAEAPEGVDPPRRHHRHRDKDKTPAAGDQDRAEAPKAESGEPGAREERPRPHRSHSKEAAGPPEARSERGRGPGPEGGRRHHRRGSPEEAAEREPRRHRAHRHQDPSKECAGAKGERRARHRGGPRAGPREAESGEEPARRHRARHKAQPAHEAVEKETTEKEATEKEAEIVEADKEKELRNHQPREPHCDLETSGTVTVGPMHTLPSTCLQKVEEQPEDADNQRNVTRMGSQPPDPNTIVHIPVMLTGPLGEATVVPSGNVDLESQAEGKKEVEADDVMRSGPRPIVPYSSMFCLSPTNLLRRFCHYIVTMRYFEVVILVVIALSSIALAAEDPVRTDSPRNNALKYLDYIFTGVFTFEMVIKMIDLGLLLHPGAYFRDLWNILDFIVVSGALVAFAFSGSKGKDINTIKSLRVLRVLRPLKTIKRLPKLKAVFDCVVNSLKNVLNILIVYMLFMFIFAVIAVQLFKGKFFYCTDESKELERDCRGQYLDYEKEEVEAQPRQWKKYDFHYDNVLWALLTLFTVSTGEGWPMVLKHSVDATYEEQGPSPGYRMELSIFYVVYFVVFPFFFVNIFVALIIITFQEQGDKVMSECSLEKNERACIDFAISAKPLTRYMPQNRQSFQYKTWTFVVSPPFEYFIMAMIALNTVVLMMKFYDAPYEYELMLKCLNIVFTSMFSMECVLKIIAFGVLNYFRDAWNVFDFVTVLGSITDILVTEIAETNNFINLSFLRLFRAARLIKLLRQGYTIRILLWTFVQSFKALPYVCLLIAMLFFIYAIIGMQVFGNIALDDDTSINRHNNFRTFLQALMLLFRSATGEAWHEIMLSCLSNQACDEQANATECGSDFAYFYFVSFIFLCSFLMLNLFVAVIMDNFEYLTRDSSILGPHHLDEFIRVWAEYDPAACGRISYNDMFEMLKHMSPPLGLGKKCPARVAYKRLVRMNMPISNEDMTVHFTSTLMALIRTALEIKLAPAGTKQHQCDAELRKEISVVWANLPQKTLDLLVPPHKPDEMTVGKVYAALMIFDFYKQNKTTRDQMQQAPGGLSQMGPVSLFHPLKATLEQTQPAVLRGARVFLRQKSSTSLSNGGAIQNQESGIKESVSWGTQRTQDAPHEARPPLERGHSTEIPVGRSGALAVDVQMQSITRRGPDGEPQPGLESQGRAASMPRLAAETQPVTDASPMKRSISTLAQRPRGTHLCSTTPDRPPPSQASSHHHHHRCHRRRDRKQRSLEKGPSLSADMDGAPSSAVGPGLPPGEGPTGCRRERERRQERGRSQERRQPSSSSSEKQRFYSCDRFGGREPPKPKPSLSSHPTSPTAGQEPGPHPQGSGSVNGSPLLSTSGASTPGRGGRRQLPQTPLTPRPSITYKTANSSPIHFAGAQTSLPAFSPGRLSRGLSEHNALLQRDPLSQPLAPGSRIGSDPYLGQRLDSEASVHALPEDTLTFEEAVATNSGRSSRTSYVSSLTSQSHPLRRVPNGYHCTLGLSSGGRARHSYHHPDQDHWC
Sequence (P54284 whole entry partner): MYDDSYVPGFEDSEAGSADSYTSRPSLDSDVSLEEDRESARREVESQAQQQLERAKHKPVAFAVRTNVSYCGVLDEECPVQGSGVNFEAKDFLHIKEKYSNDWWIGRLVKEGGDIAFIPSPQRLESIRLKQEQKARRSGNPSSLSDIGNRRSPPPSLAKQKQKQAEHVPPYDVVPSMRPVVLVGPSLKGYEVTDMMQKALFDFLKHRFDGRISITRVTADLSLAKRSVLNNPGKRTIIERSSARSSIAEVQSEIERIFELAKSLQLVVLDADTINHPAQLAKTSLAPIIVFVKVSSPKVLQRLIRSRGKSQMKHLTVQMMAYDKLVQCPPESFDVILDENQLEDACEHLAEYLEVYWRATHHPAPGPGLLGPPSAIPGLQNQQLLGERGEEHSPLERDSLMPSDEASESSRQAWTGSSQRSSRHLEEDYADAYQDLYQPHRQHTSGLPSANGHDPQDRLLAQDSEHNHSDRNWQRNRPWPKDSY
Sequence (P54289 25-946 partner limits assumed): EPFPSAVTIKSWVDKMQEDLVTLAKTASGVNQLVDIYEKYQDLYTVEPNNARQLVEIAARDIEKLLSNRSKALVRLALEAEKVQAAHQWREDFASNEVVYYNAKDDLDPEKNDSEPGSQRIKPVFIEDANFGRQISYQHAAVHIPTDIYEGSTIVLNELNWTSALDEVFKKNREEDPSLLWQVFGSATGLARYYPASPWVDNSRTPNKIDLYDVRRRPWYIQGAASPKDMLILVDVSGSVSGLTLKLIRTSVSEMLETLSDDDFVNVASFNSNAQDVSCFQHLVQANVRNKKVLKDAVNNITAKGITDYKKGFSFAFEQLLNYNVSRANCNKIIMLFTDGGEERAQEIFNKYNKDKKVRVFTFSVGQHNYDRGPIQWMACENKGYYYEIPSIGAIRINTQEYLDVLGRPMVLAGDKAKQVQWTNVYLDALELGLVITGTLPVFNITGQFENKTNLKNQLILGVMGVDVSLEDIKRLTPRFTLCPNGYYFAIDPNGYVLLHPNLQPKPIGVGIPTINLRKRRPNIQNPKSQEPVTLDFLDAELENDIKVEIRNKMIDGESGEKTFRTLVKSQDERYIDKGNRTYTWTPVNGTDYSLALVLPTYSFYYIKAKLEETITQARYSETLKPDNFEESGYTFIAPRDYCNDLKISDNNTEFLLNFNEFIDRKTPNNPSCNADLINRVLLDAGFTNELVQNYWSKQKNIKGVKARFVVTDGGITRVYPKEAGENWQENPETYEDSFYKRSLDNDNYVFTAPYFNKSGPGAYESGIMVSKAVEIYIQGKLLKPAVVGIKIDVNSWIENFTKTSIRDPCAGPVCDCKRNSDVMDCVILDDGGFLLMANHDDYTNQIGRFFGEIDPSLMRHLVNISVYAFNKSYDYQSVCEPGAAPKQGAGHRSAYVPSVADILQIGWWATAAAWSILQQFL
Sequence (P54289 947-1103 partner limits assumed): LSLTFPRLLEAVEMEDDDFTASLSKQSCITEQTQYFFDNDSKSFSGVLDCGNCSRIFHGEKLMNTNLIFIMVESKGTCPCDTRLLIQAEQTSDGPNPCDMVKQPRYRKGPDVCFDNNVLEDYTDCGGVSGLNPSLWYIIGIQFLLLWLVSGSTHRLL
Recorded IC50 determines the group label, using lower range (below 2 µM), middle range (2 µM to below 8 µM), upper range (8 µM or more)

Inquiry: Please report the category associated with CC(C)C[C@@H](C(=O)N[C@@H](Cc1ccc(OCc2ccccc2)cc1)C(=O)N1CCSCC1)N(C)C (relative stereo) , nothing else.
Reply text: lower range

Inquiry: Next up: CC(C)C[C@@H](C(=O)N[C@@H](Cc1ccc(OCc2ccccc2)cc1)C(=O)NCCN1CCCC1)N(C)C (relative stereo)
Reply text: upper range

Inquiry: Quick one: CC(C)C[C@H](NC1CCOCC1)C(=O)N[C@@H](Cc1ccc(OCc2ccccc2)cc1)C(=O)NCCN1CCOCC1 (relative stereo)
Reply text: middle range

Inquiry: Field entry: CC(C)C[C@@H](C(=O)N[C@@H](Cc1ccc(OCc2ccccc2)cc1)C(=O)N1CCC(O)CC1)N1CCOCC1 (relative stereo)
Reply text: middle range

Inquiry: Field entry: CC(C)CCN(C)[C@@H](CC(C)C)C(=O)N[C@@H](Cc1ccc(OCc2ccccc2)cc1)C(=O)NCCN1CCCCC1 (relative stereo)
Reply text: lower range

Inquiry: Check CC(C)C[C@@H](C(=O)N[C@@H](Cc1ccc(OCc2ccccc2)cc1)C(=O)NCCCn1ccnc1)N(C)C (relative stereo) too.
Reply text: lower range

Inquiry: What about CC(C)C[C@@H](C(=O)N[C@@H](Cc1ccc(OCc2ccccc2)cc1)C(=O)NCCc1ccccn1)N1CCOCC1 (relative stereo) ?
Reply text: middle range

Inquiry: Try this compound too: CC(C)CC(C(=O)NC(Cc1ccc(OCc2ccccc2)cc1)C(=O)NCCCn1ccnc1)N1CCOCC1 (stereo not drawn)
Reply text: upper range

Inquiry: Queued: CC(C)CCN(C)[C@@H](CC(C)C)C(=O)N[C@@H](Cc1ccc(OCc2ccccc2)cc1)C(=O)NC(C)(C)CO (relative stereo)
Reply text: lower range

Inquiry: Now the same for CC(C)C[C@@H](C(=O)N[C@@H](Cc1ccc(OCc2ccccc2)cc1)C(=O)NC(C)CO)N(C)C (relative stereo)
Reply text: middle range

Inquiry: Okay, and CC(C)C[C@@H](C(=O)N[C@@H](Cc1ccc(OCc2ccccc2)cc1)C(=O)NCCN1CCSCC1)N1CCOCC1 (relative stereo) ?
Reply text: middle range

Inquiry: Entry CC(C)C[C@@H](C(=O)N[C@@H](Cc1ccc(OCc2ccccc2)cc1)C(=O)NCCN1CCOCC1)N(C)C (relative stereo) please
Reply text: upper range
